# system_under_test: TJP2_1, Q9UDY2
# Sequence (Q9UDY2 24-128): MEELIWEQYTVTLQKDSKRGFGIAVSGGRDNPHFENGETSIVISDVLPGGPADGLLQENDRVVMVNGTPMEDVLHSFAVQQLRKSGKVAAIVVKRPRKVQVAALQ
# test_details: holdup assay
# Design: key: below the threshold = too weak to quantify, mostly under pKd 3.1 to 4
# condition_details: plain residues with an end cap or a label only (N-terminal biotin on a linker: ado-ado)
Label TRUE when pKd is at or above 4; otherwise label FALSE.

| binder | label_value |
| --- | --- |
| KKMLQRRTLL [OR8G1, Q15617] | TRUE |
| ARESQKVSHV [FAM110B, Q8TC76] | FALSE |
| DGVNEKVSCV [HTR2A, P28223] | FALSE |
| PYSESDDDWC [CACNA1A, O00555] | FALSE |
| QSYPSKHDYV [CLDN18, P56856] | TRUE |
| MQHQRTHTRV [ZSCAN30, Q86W11] | TRUE |
